Listing of recorded inhibition by entry.
- ASSAY SUMMARY: NOD1 signaling inhibitors, primary screen, cell-based, luminescence, uHTS (AID 1578);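 also: HEK-293T reporter cells stimulated with the NOD1 agonist gamma-tri-DAP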
- TEST SETTINGS: NOD1-driven NF-kB luciferase reporter cells, at 4 µM, active compounds read high
Hit rate of the full screen: of about 290,000 compounds, about 3,000 (1%) were called active. Only a selection was taken, and actives are over-represented in it overall.
Expressed in %, but write only the number.

> print(dat)
                                   compound  unit.symbol  readout.value
1  S=c1[nH]nc(C23CC4CC(CC(C4)C2)C3)n1Cc1ccco1            %            1.2

Consider the compound CCOC(=O)c1cnn(-c2nc(C)nc3sc4c(c23)CCC4)c1N and give its measured inhibition.
-33

Consider the compound CCn1cc(C(=O)NCc2ccccc2)c(=O)c2cc(F)c(N3CCN(C(=O)c4ccco4)CC3)cc21 and give its measured inhibition.
46.3

Consider the compound CCOC(=O)c1cccc(NC(=O)/C=C/c2ccc3c(c2)OCO3)c1 and give its measured inhibition.
98

Consider the compound COc1ccc(C(=O)Nn2c(SCC(=O)NC3CCCC3)nc3ccccc3c2=O)cc1 and give its measured inhibition.
12.9

---

- ASSAY SUMMARY: NOD1 signaling inhibitors, primary screen, cell-based, luminescence, uHTS (AID 1578);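 also: HEK-293T reporter cells stimulated with the NOD1 agonist gamma-tri-DAP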
- TEST SETTINGS: NOD1-driven NF-kB luciferase reporter cells, at 4 µM, active compounds read high
Among all 290,000 compounds or so, about 3,000 (1%) were called active. This is one part of a sample in which actives are shown more often than they occur.
Listing of recorded inhibition by entry.
Expressed in %, but write only the number.

Consider the compound CCSc1nnc(NC(=O)c2cc(C)on2)s1 and give its measured inhibition.
-22.4

Consider the compound CCn1c(SCC(=O)N/N=C/c2ccccc2OCC(=O)O)nnc1-c1ccccc1 and give its measured inhibition.
-7.7

Consider the compound O=C(OCc1nc2ccccc2s1)c1ccc([N+](=O)[O-])o1 and give its measured inhibition.
-43.7

---

- ASSAY SUMMARY: NOD1 signaling inhibitors, primary screen, cell-based, luminescence, uHTS (AID 1578);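 also: HEK-293T reporter cells stimulated with the NOD1 agonist gamma-tri-DAP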
- TEST SETTINGS: NOD1-driven NF-kB luciferase reporter cells, at 4 µM, active compounds read high
Among all 290,000 compounds or so, about 3,000 (1%) were called active. Only a selection was taken, and actives are over-represented in it overall.
RESULT TYPE: inhibition (%)
Expressed in %, but write only the number.

Consider the compound Cn1c(=O)c2c(nc(SCc3ccccc3F)n2C)n(C)c1=O and give its measured inhibition.
24

Consider the compound COCc1cc(C)nc(N2CCCCC2)c1C#N and give its measured inhibition.
-7.1

Consider the compound O=C1CC(Cc2ccc(Br)cc2)C(=O)N1c1ccccc1 (centres undefined) and give its measured inhibition.
-19.8

Consider the compound Cc1ccc(N(C(=O)Cn2nnc(-c3ccc(C)o3)n2)C(C(=O)NC2CCCC2)c2ccncc2)cc1 (centres undefined) and give its measured inhibition.
-8.9

Consider the compound COc1cccc(C(=O)NCCNC(=O)c2ccc(C)nc2)c1 and give its measured inhibition.
-6.6

Consider the compound c1ccc(-c2ccc(-c3ccccn3)nn2)nc1 and give its measured inhibition.
27.1

Consider the compound COc1cc(NC(=O)c2ccccc2)c(OC)cc1Cl and give its measured inhibition.
-16.7

Consider the compound O=C(O)Cc1ccc(NC(=S)NCc2ccco2)cc1 and give its measured inhibition.
-27.1

Consider the compound Cc1cccc(Cn2c(O)c(N=NC(=S)Nc3ccccc3F)c3ccccc32)c1 and give its measured inhibition.
14.6
